Tested on: Aspergillus clavatus
testDetails: Antimicrobial activity against Aspergillus clavatus MTCC 1323 assessed as growth inhibition after 48 hr by agar streak dilution method
Type: functional
conditionDescription: MTCC 1323, 48 h
Some compounds, each annotated with its measured MIC.
Numbers only; they are read as µg/mL.

The examples below pair each entry with its known result.
compound=N#Cc1c(-c2ccccc2O)cc(-c2ccc(Nc3cc(=O)oc4ccccc34)cc2)nc1N systemname="Aspergillus clavatus" unitdescriptor=µg/mL recordedvalue=6.25
compound=O=C(/C=C/c1ccc([N+](=O)[O-])cc1)c1ccc(Nc2cc(=O)oc3ccccc23)cc1 systemname="Aspergillus clavatus" unitdescriptor=µg/mL recordedvalue=100
compound=O=C(/C=C/c1ccccc1Br)c1ccc(Nc2cc(=O)oc3ccccc23)cc1 systemname="Aspergillus clavatus" unitdescriptor=µg/mL recordedvalue=100
compound=Cc1ccc(-c2cc(-c3ccc(Nc4cc(=O)oc5ccccc45)cc3)nc(N)n2)cc1 systemname="Aspergillus clavatus" unitdescriptor=µg/mL recordedvalue=100
compound=Nc1nc(-c2ccc(Cl)cc2)cc(-c2ccc(Nc3cc(=O)oc4ccccc34)cc2)n1 systemname="Aspergillus clavatus" unitdescriptor=µg/mL recordedvalue=50

Known value: Aspergillus clavatus MIC of the compound O=C(/C=C/c1ccc(O)cc1O)c1ccc(Nc2cc(=O)oc3ccccc23)cc1 equals 25

Known value: Aspergillus clavatus MIC of the compound COc1ccc(-c2cc(-c3ccc(Nc4cc(=O)oc5ccccc45)cc3)nc(N)n2)cc1 equals 12.5

Known value: Aspergillus clavatus MIC of the compound CC(=O)N1N=C(c2ccc(Nc3cc(=O)oc4ccccc34)cc2)CC1c1ccc(O)cc1O (configuration not stated) equals 25

Known value: Aspergillus clavatus MIC of the compound Nc1nc(-c2ccccc2)cc(-c2ccc(Nc3cc(=O)oc4ccccc34)cc2)n1 equals 25

Known value: Aspergillus clavatus MIC of the compound CC(=O)N1CCN(c2ccc(OCC3COC(Cn4ccnc4)(c4ccc(Cl)cc4Cl)O3)cc2)CC1 (configuration not stated) equals 1

Known value: Aspergillus clavatus MIC of the compound CC(=O)N1N=C(c2ccc(Nc3cc(=O)oc4ccccc34)cc2)CC1c1ccc(Cl)cc1 (configuration not stated) equals 100
